Target: T1, CEA-derived … (SEQ ID NO: 71)-HLA-A*0201 complex (biotin on the C-terminal biotinylation tag (enzymatic, BirA))
T1 construct: also called soluble biotinylated HLA-A2-peptide complex; not shown: C-terminal biotinylation tag that replaces the transmembrane and cytoplasmic domains
Assay: Biacore SPR, pMHC immobilised
pKd: −log10 of the molar value.
VALUE_TYPE: pKd

Supply reported pKd belonging to this binder: SEQ ID NO 62 (receptor) MGHLPKPTLWAEPGSVITMDQPVTLRCQGGQETQEYRLYREKKTAPWITRIPQELVKKGQFPIPSITWEHAGRYRCYYGSDTSQWSASSDPLELVVTGVYIKPTLSAQPSPVVNSGGNVTLQCDSPFLTDGFILCKEGEDEHPQCLNSQPHARGSSRAIFSVGPVSPSRRWWYRCYAYMSWSPYEWSLPSDLLELDVDG
≥ 6.00
